Hey, just so you know, these numbers are from ChEMBL document CHEMBL1155027.

# assay explanation: Inhibition of chymotrypsin-like activity of human 20S proteasome
Assign IC50 to each entry below.
Report as a plain number; the unit nM is understood.

# get_value(readout='IC50', item= `CC1(C)[C@@H](OC(=O)CCCC(=O)O)CC[C@]2(C)[C@H]3C(=O)C=C4[C@@H]5C[C@@](C)(C(=O)O)CC[C@]5(C)CC[C@@]4(C)[C@]3(C)CC[C@@H]12` ) 1390

State the recorded IC50 for this entry: `CC(=O)Cc1ccc(OCC(=O)O[C@H]2CC[C@]3(C)[C@H]4C(=O)C=C5[C@@H]6C[C@@](C)(C(=O)O)CC[C@]6(C)CC[C@@]5(C)[C@]4(C)CC[C@H]3C2(C)C)cc1` 2270

Give the measured IC50 of `CC1(C)[C@@H](OC(=O)Cc2cccc(CC(=O)O)c2)CC[C@]2(C)[C@H]3C(=O)C=C4[C@@H]5C[C@@](C)(C(=O)O)CC[C@]5(C)CC[C@@]4(C)[C@]3(C)CC[C@@H]12` . 1050

What value of IC50 has been reported for the following molecule? `CC(C)(CC(=O)O)CC(=O)O[C@H]1CC[C@]2(C)[C@H]3C(=O)C=C4[C@@H]5C[C@@](C)(C(=O)O)CC[C@]5(C)CC[C@@]4(C)[C@]3(C)CC[C@H]2C1(C)C` 6860

Request the reported IC50 associated with CC1(C)[C@@H](OC(=O)CCC(=O)O)CC[C@]2(C)[C@H]3C(=O)C=C4[C@@H]5C[C@@](C)(C(=O)O)CC[C@]5(C)CC[C@@]4(C)[C@]3(C)CC[C@@H]12 [CARBENOXOLONE] 2630

What measured IC50 goes with `CC1(C)[C@@H](OC(=O)Cc2ccc(CC(=O)O)cc2)CC[C@]2(C)[C@H]3C(=O)C=C4[C@@H]5C[C@@](C)(C(=O)O)CC[C@]5(C)CC[C@@]4(C)[C@]3(C)CC[C@@H]12` ? 1780

Reported IC50, molecule `CC1(C)[C@@H](OC(=O)c2ccccc2)CC[C@]2(C)[C@H]3C(=O)C=C4[C@@H]5C[C@@](C)(C(=O)O)CC[C@]5(C)CC[C@@]4(C)[C@]3(C)CC[C@@H]12` : ____ 2080

Name the recorded IC50 for CC1(C)[C@@H](O)CC[C@]2(C)[C@H]3C(=O)C=C4[C@@H]5C[C@@](C)(C(=O)O)CC[C@]5(C)CC[C@@]4(C)[C@]3(C)CC[C@@H]12 [ENOXOLONE] . 22300

Requested field: IC50. Item: `CC1(C)[C@@H](OC(=O)C/C=C/CC(=O)O)CC[C@]2(C)[C@H]3C(=O)C=C4[C@@H]5C[C@@](C)(C(=O)O)CC[C@]5(C)CC[C@@]4(C)[C@]3(C)CC[C@@H]12` 350

Given the entry CC(C)CC(NC(=O)[C@@]1(C)CC[C@]2(C)CC[C@]3(C)C(=CC(=O)[C@@H]4[C@@]5(C)CC[C@H](OC(=O)CC(C)(C)C(=O)O)C(C)(C)[C@@H]5CC[C@]43C)[C@@H]2C1)C(=O)O (some centres not stated) , report its measured IC50. 3090

====

# assay explanation: Inhibition of caspase-like activity of human 20S proteasome
Residues, ends and D or L forms follow the SMILES beside them.
measured attribute: IC50 (µM)
Write the answer as a number in µM, unit excluded.

Need IC50, item CSCC[C@@H](C=O)NC(=O)[C@H](CC(C)C)NC(=O)[C@H](CC(C)C)NC(C)=O (Ac-Leu-Leu-Met-aldehyde) 22.5

What does the data say about its IC50? Entry: `CC1(C)[C@@H](OC(=O)C/C=C/CC(=O)O)CC[C@]2(C)[C@H]3C(=O)C=C4[C@@H]5C[C@@](C)(C(=O)O)CC[C@]5(C)CC[C@@]4(C)[C@]3(C)CC[C@@H]12` 26.5

Using the record for `CC1(C)[C@@H](OC(=O)CCCCC(=O)O)CC[C@]2(C)[C@H]3C(=O)C=C4[C@@H]5C[C@@](C)(C(=O)O)CC[C@]5(C)CC[C@@]4(C)[C@]3(C)CC[C@@H]12` , report its IC50. 5.02

# input compound: `CC1(C)[C@@H](OC(=O)c2cccc(C(=O)O)c2)CC[C@]2(C)[C@H]3C(=O)C=C4[C@@H]5C[C@@](C)(C(=O)O)CC[C@]5(C)CC[C@@]4(C)[C@]3(C)CC[C@@H]12` ; wanted: its IC50 3.56
